Provenance of the data: patent US11034672B1

Molecular target: EGFR-Exon 20 insertion NPH (EGFR-NPH) (Homo sapiens, UniProt P00533, DUP771-773)
Sequence (P00533 with tags, fused parts or gaps DUP771-773): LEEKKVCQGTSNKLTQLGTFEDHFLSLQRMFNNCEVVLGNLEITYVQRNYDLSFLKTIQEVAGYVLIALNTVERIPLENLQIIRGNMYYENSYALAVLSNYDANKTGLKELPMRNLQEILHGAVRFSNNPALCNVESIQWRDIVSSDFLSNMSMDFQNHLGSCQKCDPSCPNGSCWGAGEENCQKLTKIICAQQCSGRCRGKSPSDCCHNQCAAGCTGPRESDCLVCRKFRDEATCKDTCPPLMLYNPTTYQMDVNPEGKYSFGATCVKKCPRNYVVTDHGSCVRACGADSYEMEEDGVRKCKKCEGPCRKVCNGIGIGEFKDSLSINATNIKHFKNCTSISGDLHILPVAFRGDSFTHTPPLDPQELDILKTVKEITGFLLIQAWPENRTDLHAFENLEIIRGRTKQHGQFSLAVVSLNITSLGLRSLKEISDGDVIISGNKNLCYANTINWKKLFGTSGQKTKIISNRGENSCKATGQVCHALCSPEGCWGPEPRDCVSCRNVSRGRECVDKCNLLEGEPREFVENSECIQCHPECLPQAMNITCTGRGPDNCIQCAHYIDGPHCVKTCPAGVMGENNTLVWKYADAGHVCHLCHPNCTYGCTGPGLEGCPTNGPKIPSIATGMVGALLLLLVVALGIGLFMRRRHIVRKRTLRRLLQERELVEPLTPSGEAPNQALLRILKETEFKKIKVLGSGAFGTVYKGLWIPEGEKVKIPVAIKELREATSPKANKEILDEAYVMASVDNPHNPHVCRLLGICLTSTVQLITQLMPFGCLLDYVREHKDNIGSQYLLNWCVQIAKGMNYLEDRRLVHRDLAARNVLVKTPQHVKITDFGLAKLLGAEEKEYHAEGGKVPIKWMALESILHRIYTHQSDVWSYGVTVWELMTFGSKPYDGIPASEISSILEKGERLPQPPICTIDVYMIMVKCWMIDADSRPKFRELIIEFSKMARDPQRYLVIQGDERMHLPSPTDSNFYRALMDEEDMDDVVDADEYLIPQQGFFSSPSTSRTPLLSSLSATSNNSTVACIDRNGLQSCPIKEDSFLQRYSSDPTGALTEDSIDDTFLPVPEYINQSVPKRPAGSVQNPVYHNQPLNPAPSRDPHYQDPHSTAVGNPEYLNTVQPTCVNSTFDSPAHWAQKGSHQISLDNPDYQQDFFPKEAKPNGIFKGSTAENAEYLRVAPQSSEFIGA
Experiment: BaF3 panel Cell Titer Glo proliferation, EGFR-NPH (Example 3)
Settings: BaF3 transformant, 72 hours, FIG. 21
assay metric: IC50

[ask] Requested field: IC50. Item: C=CC(=O)Nc1cc2c(Nc3cc(Cl)c(OCc4cccc(F)c4)cc3F)ncnc2cc1OCCN1CCOCC1
[reply] < 100 nM

* * *

Target: EGFR SVD (Homo sapiens, UniProt P00533, DUP768-770)
Construct: expressed in transfected cells; host or cells: BaF3 (murine pro-B), retroviral pMXs-IRES-Blasticidin
Sequence (P00533 with tags, fused parts or gaps DUP768-770): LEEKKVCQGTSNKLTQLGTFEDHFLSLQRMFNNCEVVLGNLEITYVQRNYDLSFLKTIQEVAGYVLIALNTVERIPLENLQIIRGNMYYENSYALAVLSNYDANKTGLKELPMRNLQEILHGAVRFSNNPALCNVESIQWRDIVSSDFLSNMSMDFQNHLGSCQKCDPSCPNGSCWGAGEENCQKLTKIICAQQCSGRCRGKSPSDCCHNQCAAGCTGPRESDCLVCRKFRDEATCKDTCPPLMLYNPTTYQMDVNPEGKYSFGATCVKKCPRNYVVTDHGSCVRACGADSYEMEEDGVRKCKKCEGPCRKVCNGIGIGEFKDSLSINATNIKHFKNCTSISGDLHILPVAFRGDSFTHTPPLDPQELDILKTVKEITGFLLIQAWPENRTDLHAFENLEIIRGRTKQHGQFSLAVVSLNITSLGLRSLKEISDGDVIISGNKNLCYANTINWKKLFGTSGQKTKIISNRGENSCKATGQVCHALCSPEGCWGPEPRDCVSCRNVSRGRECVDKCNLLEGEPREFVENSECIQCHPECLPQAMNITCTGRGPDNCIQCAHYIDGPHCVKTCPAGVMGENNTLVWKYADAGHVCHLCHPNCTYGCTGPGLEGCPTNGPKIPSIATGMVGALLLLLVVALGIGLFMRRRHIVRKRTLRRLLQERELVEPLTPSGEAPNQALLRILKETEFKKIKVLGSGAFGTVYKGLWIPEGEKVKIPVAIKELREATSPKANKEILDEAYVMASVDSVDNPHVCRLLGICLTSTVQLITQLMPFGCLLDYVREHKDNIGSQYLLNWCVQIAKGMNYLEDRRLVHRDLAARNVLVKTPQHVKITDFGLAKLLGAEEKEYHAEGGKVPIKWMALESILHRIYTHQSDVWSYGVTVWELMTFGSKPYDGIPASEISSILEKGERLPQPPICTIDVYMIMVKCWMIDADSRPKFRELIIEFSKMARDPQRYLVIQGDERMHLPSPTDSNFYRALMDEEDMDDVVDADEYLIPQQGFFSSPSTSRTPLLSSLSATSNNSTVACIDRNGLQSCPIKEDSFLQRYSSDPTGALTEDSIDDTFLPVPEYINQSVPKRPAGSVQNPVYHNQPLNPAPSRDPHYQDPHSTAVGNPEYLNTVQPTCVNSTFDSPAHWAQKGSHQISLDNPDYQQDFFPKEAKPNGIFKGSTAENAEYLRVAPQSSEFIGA
Assay: BaF3 cell proliferation assay, EGFR SVD (Table A)
Type: cell-based
Conditions: potency code, 3 days, CellTiterGlo, read-out: EGFR SVD (Activity for Inhibiting EGFR)
Give IC50 for every item shown.

[ask] Requested field: IC50. Item: C=CC(=O)Nc1cc2c(Nc3ccc(OCc4ccccn4)c(Cl)c3)ncnc2cc1C#CC(C)(C)N1CCCC1
[reply] 50 to 100 nM

[ask] Requested field: IC50. Item: C=CC(=O)Nc1cc2c(Nc3ccc(OCc4ccccn4)c(Cl)c3)ncnc2cc1OC1CN(C)C1
[reply] 30 to 50 nM

[ask] Requested field: IC50. Item: C=CC(=O)Nc1cc2c(Nc3ccc(OCc4ccccn4)c(Cl)c3)ncnc2cc1OCCN1C2CCC1COC2
[reply] 50 to 100 nM

[ask] Requested field: IC50. Item: C=CC(=O)Nc1cc2c(Nc3ccc(OCc4ccccn4)c(Cl)c3)ncnc2cc1N1CC2CN(C)CC2C1 (stereo not shown)
[reply] 500 to 1000 nM
